system: Rattus norvegicus; experiment: Inhibition of leukotriene production in an ionophore-induced rat pleurisy model at 3 mg/kg; assay type: functional
metric.name: Inhibition (%)
Express your answer in %, writing the number without its unit.

Which Inhibition value is on record for O=C([O-])C=C(c1ccc(OCc2ccc3ccccc3n2)cc1)c1ccc(OCc2ccc3ccccc3n2)cc1.[Na+] ?
19

Which Inhibition value is on record for O=C(O)C1CCC(c2ccc(OCc3ccc4ccccc4n3)cc2)(c2ccc(OCc3ccc4ccccc4n3)cc2)CC1 ?
0

Which Inhibition value is on record for Cn1c(COc2ccc(C(C)(CCC(=O)O)c3ccc(OCc4nc5ccccc5n4C)cc3)cc2)nc2ccccc21 ?
0

Moving on to another compound below.
Which Inhibition value is on record for Cn1c(COc2ccc(C(C)(CCC(=O)O)c3ccc(OCc4ccc5ccccc5n4)cc3)cc2)nc2ccccc21 (centres undefined) ?
0

----------
species: Homo sapiens; test: Inhibition of calcium ionophore (A-23187) -stimulated leukotriene B4 (LTB4) formation in human neutrophils at 390 nM; assay type: functional; settings: Homo sapiens
Catalogue of compounds with associated inhibition at 0.39 µM

Some solved cases for reference:
Which inhibition at 0.39 µM value is on record for C/C(=N\OCCC(C)(c1ccc(OCc2ccc3ccccc3n2)cc1)c1ccc(OCc2ccc3ccccc3n2)cc1)C(=O)O ?
54%

Which inhibition at 0.39 µM value is on record for CC(CCC(=O)O)(c1ccc(OCc2ccc3ccccc3c2)cc1)c1ccc(OCc2ccc3ccccc3n2)cc1 (stereo not drawn) ?
93%

Moving on to another compound below.
Which inhibition at 0.39 µM value is on record for CC(CCC(=O)O)(c1ccc(OCc2cnc3ccccc3n2)cc1)c1ccc(OCc2cnc3ccccc3n2)cc1 ?
47%

----------
tested on: Rattus norvegicus; experiment: Inhibition of leukotriene production in an ionophore-induced rat pleurisy model at 3 mg/kg; format: functional
Criterion: Inhibition strictly under 40%. Met: yes (1). Not met: no (0).

Illustrative cases are given below, each with its answer.
Consider O=C([O-])CC(c1ccc(OCc2ccc3ccccc3n2)cc1)c1ccc(OCc2ccc3ccccc3n2)cc1.[Na+] . Does its Inhibition lie strictly below 40%?
yes (1)

Consider CC(CC(c1ccc(OCc2ccc3ccccc3n2)cc1)c1ccc(OCc2ccc3ccccc3n2)cc1)C(=O)O (centres undefined) . Does its Inhibition lie strictly below 40%?
no (0)

Consider Cn1c(COc2ccc(C(C)(CCC(=O)[O-])c3ccc(OCc4nc5ccccc5n4C)cc3)cc2)nc2ccccc21.[Na+] . Does its Inhibition lie strictly below 40%?
yes (1)

Consider CC(CCCC(=O)O)(c1ccc(OCc2ccc3ccccc3n2)cc1)c1ccc(OCc2ccc3ccccc3n2)cc1 . Does its Inhibition lie strictly below 40%?
yes (1)

Consider Cn1c(COc2ccc(C(C)(CCC(=O)[O-])c3ccc(OCc4ccc5ccccc5n4)cc3)cc2)nc2ccccc21.[Na+] (centres undefined) . Does its Inhibition lie strictly below 40%?
yes (1)

***
Consider O=C([O-])C1CCC(c2ccc(OCc3ccc4ccccc4n3)cc2)(c2ccc(OCc3ccc4ccccc4n3)cc2)CC1.[Na+] . Does its Inhibition lie strictly below 40%?
yes (1)

Consider CC(C(=O)O)(c1ccc(OCc2ccc3ccccc3n2)cc1)c1ccc(OCc2ccc3ccccc3n2)cc1 . Does its Inhibition lie strictly below 40%?
yes (1)

Consider CC(C(=O)[O-])(c1ccc(OCc2ccc3ccccc3n2)cc1)c1ccc(OCc2ccc3ccccc3n2)cc1.[Na+] . Does its Inhibition lie strictly below 40%?
no (0)
